Target: HLA-B*07:02
Experiment: IEDB peptide-MHC binding, purified MHC/direct/fluorescence; filed as Kd, often an IC50 or EC50 that approximates it; bounds were set here for any values at or beyond the usual limits of such assays
Details: source organism: Influenza A virus (A/Viet Nam/HN/2004(H5N1))
metricName: Kd

Summary: VSPLAVTWW , HLA-B*07:02, Kd = ≥ 20 µM

* * *

Target: HLA-A*02:01
Assay: IEDB peptide-MHC binding, purified MHC/competitive/fluorescence; bounds were set here for any values at or beyond the usual limits of such assays
Conditions: source organism: Zaire ebolavirus
pIC50: −log10 of the molar value.
pIC50 listing for selected sequences.

Some solved cases for reference:
{"columns": ["recordSequence", "pIC50"],
 "data": [
  ["AVLYYHMMK", "≤ 3.51"],
  ["SDMDYHKIL", "≤ 3.62"],
  ["RPIQNVPGP", "≤ 3.33"]
]}

Record summary for SNRTPTVAP : reported pIC50 = ≤ 3.72

Record summary for VIILFQRTF : reported pIC50 = ≤ 3.09
